Reference source: patent US10662146B2

# EXPERIMENTAL_DETAILS: Single dose oral PK study in male Sprague Dawley rats (plasma by LC-MS/MS)
# Format: in vivo
# MEASUREMENT_CONTEXT: male, Sprague Dawley, rat, in vivo, po, 5 mg/kg, single oral dose 5 mg/kg body weight, mean of N=3 (Table 39.24); read-out: T1/2 (converted)
MEASURE_NAME: half-life (min)

molecule="CCN[C@H]1[C@H]2CC[C@H](C2)[C@@H]1c1ccccc1 [PRX-002 (+) Isomer, reference compound]" unit_tag=min measured_number=59.5

====

# EXPERIMENTAL_DETAILS: Single dose oral PK study in male Sprague Dawley rats (plasma by LC-MS/MS)
# Assay type: in vivo
# MEASUREMENT_CONTEXT: male, Sprague-Dawley, rat, in vivo, po, 5 mg/kg, PRX-P5-006 oral 5 mg/kg b.w., individual animals; read-out: Cmax of PRX-P5-006
MEASURE_NAME: Cmax (ng/mL)

molecule="CCCCCCCCCCCCCCCCCC(=O)OC(C)OC(=O)N(CC)C1C2CCC(C2)C1c1ccccc1 (single isomer, unassigned) [PRX-P5-006]" measure_name=Cmax unit_tag=ng/mL measured_number=43.9
